test name: folding enthalpy; higher = less favourable; fluorescence melt of hairpins on a sequencing array, two-state fit
test context: sodium 0.088 M
Think of -20 kcal/mol as a floor: if folding enthalpy stands on it or above, it is TRUE; beneath it, FALSE.

GCGGTGTGCCGC ((((....)))) ... TRUE
GAGGCCGCGAAAGCGCTC (((..(((....)))))) ... TRUE
GAGTTAGGAAACTGACTC ((((.((....)).)))) ... FALSE
GGGTACGAAAGTACACCC ((((((....)))..))) ... TRUE
GTACCCGGAAACGAGTAC ((((.((....)).)))) ... FALSE
GGGTCCGCGAAAGCGCCC (((..(((....)))))) ... TRUE
GCTGGCGAAAGCCCCAGC ((((((....)))..))) ... TRUE
GTACTCGGAAACAAGTAC (((((.(....).))))) ... FALSE
GCCTAGCGAAAGCTTAGC ((..(((....)))..)) ... TRUE
GGGGGCGAAAGCCGACCC ((((((....)))..))) ... TRUE
GCCTAGCGAAAGCAGGGC (((..((....))..))) ... FALSE
GGGATAACGAAAGTTCCC (((..(((....)))))) ... FALSE
GCTCCCGAAAGGGACAGC ((((((....)))..))) ... TRUE
GATCTGAAGTCAGATC ((((((....)))))) ... FALSE
GCCGTGCGAAAGCTAGGC (((..((....))..))) ... FALSE
GTAGTGGGAAACCGCTAC ((((.((....)).)))) ... FALSE
GTATGCGAAAGCAGCTAC ((((((....)))..))) ... TRUE
GATTGAGAAATCAATC ((((((....)))))) ... FALSE
GATCAGGGCCTGATC ((((((...)))))) ... FALSE
GTCGTGGGAAACTGCGAC ((((..(....)..)))) ... TRUE
GCTATGCGAAAGCGTTGC ((.(.((....)).).)) ... FALSE
GATAGCACGAAAGTGATC (((..(((....)))))) ... TRUE
GCAACAGGAAACTGTTAC (.(((((....))))).) ... TRUE
CGGCCGCGGAAACGCCCG (((..(((....)))))) ... FALSE
GGTGTACGAAAGTAGACC (((.(((....))).))) ... FALSE
GCCCAGGGAAACCCAGGC (((..((....))..))) ... FALSE
GCACCGCGAAAGCATTGC (((..((....))..))) ... TRUE
GCATCGCGAAAGCCGTGC (((..((....))..))) ... TRUE
CGTACGGAAACGTCCACG ((((((....)))..))) ... TRUE
GCCGGATCGAAAGATGGC (((..(((....)))))) ... TRUE
GCTATCGAAAGATACAGC ((((((....)))..))) ... FALSE
GTCGGCGAAAGCCGCGAC ((((((....)))..))) ... TRUE
GCGATGCGAAAGCACTGC ((..(((....)))..)) ... TRUE
GATCTCCTTGGAGATC ((((((....)))))) ... FALSE
GCAACTGGAAACAGTTGC (((((((....))))))) ... FALSE
GCGCGCGAAAGCGGACGC ((((((....)))..))) ... TRUE
GGGACCGAAAGGTAACCC ((((((....)))..))) ... TRUE
GATCATACCATGATC ((((((...)))))) ... FALSE
GGTGCCGAAAGGCAAACC ((((((....)))..))) ... TRUE
GTAGGCGAAAGCCTTAC ((((((....))).))) ... TRUE
GATCTCGCGGGAGATC ((((((....)))))) ... FALSE
GGGTATGCGAAAGCACCC (((..(((....)))))) ... FALSE
GTGCCAGGAAACCGGCAC (((((.(....).))))) ... FALSE
GCGATGAAAATCGC (((((....))))) ... FALSE
GACCACGAAAGTGTGGTC ((((((....)))..))) ... FALSE
TGCTTGAAAAAGCA (((((....))))) ... TRUE
GATTTTGGAAACAAAACC (.(((((....))))).) ... FALSE

Attribution: the array DNA melting data of Ke et al. (doi:10.1101/2024.01.08.574731)
